Where do the numbers come from? From PubChem BioAssay.

Overview of recorded composite z-score for various compounds
molecular target: Torsin-1A-interacting protein 1 (Homo sapiens); assay: LAP1 binders from COS7 cell lysate, primary screen, small-molecule microarray, 635/667 nm fluorescence (AID 1116); conditions: COS7-hLAP1 lysate binding, 635 nm fluorescence, higher = more signal

COMPOUND	composite z-score
COc1ccc(CCNC(=O)[C@@]2(Sc3ccc(C)cc3)CC(=O)N(C(C)C)[C@@H]2c2ccc(CO)cc2)cc1	-1.16
COCCCNC(=O)[C@@H]1c2ccccc2C(=O)N(C2CCCCC2)[C@H]1c1ccc(CO)cc1	1.25
CN1C(=O)C2C=CC(C(O)c3ccc(-c4ccccc4)s3)N(Nc3ccccc3)C2C1=O (stereo not drawn)	1.07
CC(=O)c1ccc(C(O)C2C=CC3C(=O)NC(=O)C3N2Nc2ccc(Cl)cc2Cl)cc1 (stereo not drawn)	0.0338
CCOC(=O)C[C@H]1[C@H](OC(=O)Cc2ccc3c(c2)OCO3)[C@@H](NC(=O)c2ccccc2)c2cc(OCCCO)ccc2N1C(=O)Cc1ccc(OC)cc1	0.435
CC(C)CNC(=O)[C@@H]1c2ccccc2C(=O)N(C(C)C)[C@H]1c1ccc(CO)cc1	1.58
COC(=O)[C@@]1(Cc2ccccc2)[C@@H]2[C@@H](CC(=O)[C@H]2CC(=O)C(=O)N(C)C)CN1C(=O)c1ccccc1	1.38
C=C(COC)/C(=C/C[C@H](OC(=O)c1ccncc1)c1ccc(OCCO)cc1)c1cc(C(=O)OC)ccc1OC	1.18
CCOC(=O)C1=CC[C@@H](c2ccccc2)N(S(=O)(=O)c2ccc(C)cc2)[C@H]1C#N	1.03
[N-]=[N+]=NCc1ccccc1[C@H]1OC(c2ccc(OCCCO)cc2)=N[C@@]1(Cc1ccccc1)C(=O)N1CCOCC1	1.43
COC(=O)[C@@]1(Cc2ccccc2)[C@H]2c3cc(C(=O)N4CCCC4)n(Cc4ccc(C(F)(F)F)nc4)c3C[C@H]2CN1C(=O)c1ccccc1	0.658
C[C@H]1NC(=O)C([C@@H](C)OCc2ccccc2)NC(=O)[C@@]23C(=O)N[C@@H](Cc4ccccc4)C2[C@H](C)[C@@]2(C)O[C@H]2C3/C=C/C/C=C\CNC1=O (stereo partly drawn)	-0.0194
C=CC[C@]1(C(=O)NCCCOC)N=C(c2ccc(OCCCO)cc2)O[C@H]1c1ccccc1	1.03
CCOC(=O)C[C@H]1[C@H](OC(=O)c2ccc(-c3ccccc3)cc2)[C@@H](NC(=O)CC(C)C)c2cc(OCCCO)ccc2N1C(=O)Cc1ccc(OC)cc1	0.418
C=CCOC(=O)[C@H]1[C@@H]2C(=O)O[C@@H](c3ccccc3)[C@@H](c3ccccc3)N2[C@@H](c2ccc(OCCOC(=O)[C@@H]3C[C@@H]4C(=O)N[C@@H](CC(C)C)C(=O)N4[C@@H]3c3ccc(O)cc3)cc2)[C@]12C(=O)Nc1ccc(I)cc12	1.47
COC(=O)[C@]1(CO)N=C(c2ccc(OCCCO)cc2)O[C@@H]1c1ccccc1CN=[N+]=[N-]	0.751
CCCCN1CC=CC23O[C@@H]4C=CCOC(=O)[C@@H]4[C@H]2C(=O)N(C(CO)C(C)C)[C@@H]3C1=O (stereo partly drawn)	-0.457
COCCOC(=O)N1C(=O)[C@@]2(c3cc(C#CC4=CCCCC4)ccc31)[C@H](c1ccc(OCCO)cc1)N1[C@H](c3ccccc3)[C@H](c3ccccc3)OC(=O)[C@H]1[C@@H]2C(=O)N1CCCCCCC1	1.91
COc1cc2c(cc1O)C(c1ccc(CN3CCCC3)cc1)N(Cc1ccc([N+](=O)[O-])o1)CC2 (stereo not drawn)	1.12
COc1ccc(NN2C(C(O)c3ccc(OC)cc3)C=CC3C(=O)N(C4CCCCC4)C(=O)C32)cc1 (stereo not drawn)	0.53
COC(=O)c1ccc([C@H](NC(=O)c2ccccc2)[C@]2(C)C[C@H]2C2CCCCC2)cc1	0.462
C=C(C(=O)CC[C@@H](OC(C)=O)c1cccc(OCCO)c1)C(C)C	0.847
O=C1C2C=CC(C(O)c3ccc([N+](=O)[O-])cc3)N(Nc3ccccc3)C2C(=O)N1c1ccccc1 (stereo not drawn)	-0.175
COCCOC(=O)N1C(=O)[C@@]2(c3cc(C#CC4=CCCCC4)ccc31)[C@H](C(=O)N1CCc3cc(OC)c(OC)cc3C1)[C@H]1C(=O)O[C@H](c3ccccc3)[C@H](c3ccccc3)N1[C@@H]2c1ccc(O)cc1	1.34
C=C(COC)C(=O)CC[C@@H](OC(C)=O)c1ccc(OCCO)cc1	0.119
CO[C@H]1O[C@H](CO)[C@@H](OC(=O)Nc2ccc(C(F)(F)F)cc2)[C@H](OC(=O)Nc2ccccc2-c2ccccc2)[C@@H]1OC(=O)Nc1ccccc1-c1ccccc1	1.47
COCCOC(=O)N1C(=O)[C@@]2(c3ccccc31)[C@H](C(=O)N1CCCCCCC1)[C@H]1C(=O)O[C@H](c3ccccc3)[C@H](c3ccccc3)N1[C@@H]2c1ccc(O)cc1	5.09
[N-]=[N+]=NCc1ccccc1C[C@]1(C(=O)N2CCOCC2)N=C(c2ccc(OCCCO)cc2)O[C@H]1c1ccccc1CN=[N+]=[N-]	2.79
